- Tested on: wild mustard
- assayProcedure: Test D preemergence
- Type: in vivo, Sinapis arvensis
- runConditions: Brassica, pre-emergence, 16 g ai/ha, scale 0 (no effect) to 100 (complete control), read-out: Plant response rating, Mustard, Wild
assayMetric: pest or weed control at 16 g/ha (%)
Numbers only, in %.

In the examples that follow, each entry is paired with its recorded pest or weed control at 16 g/ha.
Fc1cccc(Oc2ncc(Cl)cn2)c1-n1cc(Br)cn1: 25
Clc1cnc(Oc2ccccc2-n2cc(Br)cn2)nc1: 20
FC(F)(F)c1cn(-c2ccccc2Oc2ncc(Cl)cn2)nn1: 65

Please turn your attention to the following entry.
Report pest or weed control at 16 g/ha for FC(F)(F)c1cnn(-c2ccccc2Oc2ncc(Br)cn2)c1 please.
80

---

Give Johnsongrass plant response rating for every item shown.
- Test system: johnsongrass
- assayProcedure: Test C preemergence
- Format: in vivo, Sorghum halepense
- runConditions: 125 g ai/ha, preemergence; scale 0 (no effect) to 100 (complete control)
One number for each entry.

In the examples that follow, each entry is paired with its recorded Johnsongrass plant response rating.
CCOc1cnn(-c2ccccc2Oc2ncc(Cl)cn2)c1: 45
CCOc1cnn(-c2c(C#N)cccc2Oc2ncc(Cl)cn2)c1: 85
Fc1cccc(Oc2ncc(Cl)cn2)c1-n1cc(OCC(F)(F)F)cn1: 95
FCc1cn(-c2c(F)cccc2Oc2ncc(Cl)cn2)nn1: 85
COc1cnn(-c2c(C#N)cccc2Oc2ncc(Cl)cn2)c1: 45

For the 2 compounds below, give their Johnsongrass plant response rating values.
1. CCCOc1cnn(-c2c(C#N)cccc2Oc2ncc(Cl)cn2)c1
2. FCc1cccc(Oc2ncc(Cl)cn2)c1-n1cc(Br)cn1

80
85

For the 3 compounds below, give their Johnsongrass plant response rating values.
1. N#Cc1cccc(Oc2ncc(F)cn2)c1-n1cc(Cl)cn1
2. N#Cc1cccc(Oc2ncc(Cl)cn2)c1-n1cc(I)cn1
3. Fc1cnc(Oc2cccc(C(F)F)c2-n2cc(Br)cn2)nc1

1. 75
2. 95
3. 40

---

- System: giant foxtail
- assayProcedure: Test A preemergence
- Type: in vivo, Setaria faberii
- runConditions: 125 g ai/ha
Give Foxtail, Giant plant response rating (0 to 100 scale) for every item shown.
Give bare numbers.

In the examples that follow, each entry is paired with its recorded Foxtail, Giant plant response rating (0 to 100 scale).
N#Cc1cc(F)cc(Oc2ncc(Br)cn2)c1-n1cc(Br)cn1: 90
Fc1cnc(Oc2ccccc2-n2cc(OCC(F)(F)F)cn2)nc1: 100

For the 6 compounds below, give their Foxtail, Giant plant response rating (0 to 100 scale) values.
1. FC(F)c1cccc(Oc2ncc(Br)cn2)c1-n1cc(Br)cn1
2. FC(F)c1cccc(Oc2ncc(Cl)cn2)c1-n1cncc1Br
3. Cc1ccc(Oc2ncc(Cl)cn2)c(-n2cc(Br)cn2)c1Br
4. FC(F)c1cccc(Oc2ncc(Br)cn2)c1-n1cc(I)cn1
5. COc1cnc(Oc2cccc(C#N)c2-n2cc(Br)cn2)nc1
6. Cc1cc(C(F)F)nn1-c1ccccc1Oc1ncc(Cl)cn1

[90, 100, 10, 90, 20, 0]

---

- System: wild oat
- assayProcedure: Test D preemergence
- Assay type: in vivo, Avena fatua
- runConditions: Avena fatua, pre-emergence, 125 g ai/ha, scale 0-100, read-out: Plant response rating, Oat, Wild
Give pest or weed control at 125 g/ha for every item shown.
Answers are plain numbers, in %.

FC(F)(F)COc1cnn(-c2ccccc2Oc2ncc(Cl)cn2)c1: 0

For the 3 compounds below, give their pest or weed control at 125 g/ha values.
1. FC(F)(F)c1cnn(-c2ccccc2Oc2ncc(Br)cn2)c1
2. N#Cc1cccc(Oc2ncc(Br)cn2)c1-n1cc(C(F)(F)F)cn1
3. Clc1cnc(Oc2ccccc2-n2cc(Br)cn2)nc1

[5, 20, 10]

Reference source: patent US9695155B2
